This section presents Ki values reported for Synaptic vesicular amine transporter (Rattus norvegicus) in the literature.
RESULT_TYPE: Ki (nM)

Example results:
Q. Dear colleague, I am looking for the recorded Ki of the following compound: `COc1cc2c(cc1OC)[C@H]1C[C@@](O)(CC(C)C)[C@H](CC(C)C)CN1CC2`
A. 33

Q. Dear colleague, I am looking for the recorded Ki of the following compound: `c1ccc(CCC[C@@H]2CCC[C@H](CCCc3ccccc3)N2)cc1`
A. 4560

Q. Dear colleague, I am looking for the recorded Ki of the following compound: `CC[C@]1(O)C[C@@H]2c3cc(OC)c(OC)cc3CCN2C[C@H]1CC(C)C`
A. 42

Q. Dear colleague, I am looking for the recorded Ki of the following compound: `CN(CCCc1ccccc1)CCCc1ccccc1`
A. 3070

a: CN1[C@@H](CCc2ccccc2)CCC[C@H]1Cc1ccccc1
b: CN1[C@@H](CCCc2ccccc2)CCC[C@H]1Cc1ccccc1
c: c1ccc(C[C@H]2CCC[C@@H](Cc3ccccc3)N2)cc1
d: COc1cc2c(cc1OC)[C@H]1C[C@](C)(O)[C@H](CC(C)C)CN1CC2
Q. List from greatest to least Ki. Respond with the label ranking, as requested.
A. c, a, b, d
